Field: Ki. System: Urotensin-2 receptor (Homo sapiens, UniProt Q9UKP6). Provenance: assorted publications.
MEASURED PROPERTY: Ki (nM)

[
  {
    "MOLECULE": "CC(C)C[C@H](NC(=O)c1ccc(Br)cc1)C(=O)N[C@H]1CCN(Cc2ccc(OCCCN(C)C)cc2)C1",
    "MEASURED PROPERTY": "Ki",
    "EXPERIMENTAL RESULT": 200
  }
]

1: CC(C)[C@H](NC(=O)[C@@H]1CSSC(C)(C)[C@H](NC(=O)[C@@H](N)Cc2cccc3ccccc23)C(=O)N[C@@H](Cc2ccccc2)C(=O)N[C@H](Cc2c[nH]c3ccccc23)C(=O)N[C@@H](CCCN)C(=O)N[C@@H](Cc2ccc(O)cc2)C(=O)N1)C(=O)O
2: CC(C)[C@H](NC(=O)[C@@H]1CSSC(C)(C)[C@H](NC(=O)[C@H](C)N)C(=O)N[C@@H](Cc2ccccc2)C(=O)N[C@H](Cc2c[nH]c3ccccc23)C(=O)N[C@@H](CCCN)C(=O)N[C@@H](Cc2ccc(O)cc2)C(=O)N1)C(=O)O
3: CC(C)C[C@@H](NC(=O)c1cc2ccccc2o1)C(=O)NC1CCN(Cc2ccc(OCCCN(C)C)cc2)C1 (single isomer, unassigned)
4: CC(C)[C@H](NC(=O)[C@@H]1CSSC[C@H](NC(=O)[C@H](C)N)C(=O)N(C)[C@@H](Cc2ccccc2)C(=O)N[C@@H](Cc2c[nH]c3ccccc23)C(=O)N[C@@H](CCCCN)C(=O)N[C@@H](Cc2ccc(O)cc2)C(=O)N1)C(=O)O
query: Ascending sort, Ki. Respond with an ordered listing of the labels, as requested.
result: 2, 1, 4, 3
(2: 1.66 nM, 1: 3.89 nM, 4: 245 nM, 3: 3160 nM)

====

Here's a roundup of Ki values tested on Urotensin-2 receptor (Homo sapiens), taken from various published works.
TARGET OR SYSTEM: Urotensin-2 receptor (Homo sapiens)
Sequence (Q9UKP6 whole entry): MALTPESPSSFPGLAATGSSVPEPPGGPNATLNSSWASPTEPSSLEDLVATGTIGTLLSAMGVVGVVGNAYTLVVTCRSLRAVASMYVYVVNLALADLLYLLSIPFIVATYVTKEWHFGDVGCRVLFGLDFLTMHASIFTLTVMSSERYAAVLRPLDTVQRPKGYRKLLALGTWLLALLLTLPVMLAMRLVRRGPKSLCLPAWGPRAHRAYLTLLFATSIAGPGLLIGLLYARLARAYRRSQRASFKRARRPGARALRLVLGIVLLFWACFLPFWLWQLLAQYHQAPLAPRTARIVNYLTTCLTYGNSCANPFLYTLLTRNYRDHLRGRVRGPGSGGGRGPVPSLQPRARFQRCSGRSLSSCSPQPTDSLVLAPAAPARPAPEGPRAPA
MEASURED PROPERTY: Ki (µM)

// worked examples, Ki included
[
  {
    "STRUCTURE AS SMILES": "CC(C)[C@H](NC(=O)c1ccc(Cl)c(Cl)c1)C(=O)N[C@H]1CCN(Cc2ccc(OCCCN(C)C)cc2)C1",
    "TARGET OR SYSTEM": "Urotensin-2 receptor (Homo sapiens)",
    "EXPERIMENTAL RESULT": 0.794
  },
  {
    "STRUCTURE AS SMILES": "CC(C)C[C@H](NC(=O)c1ccccc1)C(=O)N[C@H]1CCN(Cc2ccc(OCCCN(C)C)cc2)C1",
    "TARGET OR SYSTEM": "Urotensin-2 receptor (Homo sapiens)",
    "EXPERIMENTAL RESULT": 0.501
  },
  {
    "STRUCTURE AS SMILES": "CC(C)[C@H](NC(=O)[C@@H]1CSSC[C@H](NC(=O)[C@H](CC(=O)O)NC(=O)[C@@H]2CCCN2C(=O)[C@@H](NC(=O)[C@@H](N)CCC(=O)O)[C@@H](C)O)C(=O)N(C)[C@@H](Cc2ccccc2)C(=O)N[C@@H](Cc2c[nH]c3ccccc23)C(=O)N[C@@H](CCCCN)C(=O)N[C@@H](Cc2ccc(O)cc2)C(=O)N1)C(=O)O",
    "TARGET OR SYSTEM": "Urotensin-2 receptor (Homo sapiens)",
    "EXPERIMENTAL RESULT": 0.813
  },
  {
    "STRUCTURE AS SMILES": "Cc1cc(C(=O)N[C@H]2CCN(Cc3ccc(OCCCN(C)C)cc3)C2)ccc1Cl",
    "TARGET OR SYSTEM": "Urotensin-2 receptor (Homo sapiens)",
    "EXPERIMENTAL RESULT": 0.631
  },
  {
    "STRUCTURE AS SMILES": "CN(C)CCCOc1ccc(CN2CC[C@H](NC(=O)c3ccc4c(c3)OCO4)C2)cc1",
    "TARGET OR SYSTEM": "Urotensin-2 receptor (Homo sapiens)",
    "EXPERIMENTAL RESULT": 2.51
  }
]

A: CN(C)CCCOc1ccc(CN2CC[C@H](NC(=O)c3cc(Cl)cc(Cl)c3)C2)cc1
B: CC(C)[C@H](NC(=O)[C@@H]1CSSC(C)(C)[C@H](NC(=O)[C@@H](N)Cc2ccc3ccccc3c2)C(=O)N[C@@H](Cc2ccccc2)C(=O)N[C@H](Cc2c[nH]c3ccccc23)C(=O)N[C@@H](CCCN)C(=O)N[C@@H](Cc2ccc(O)cc2)C(=O)N1)C(=O)O
query: Looking at A and B , which one comes out lower in Ki terms? // respond with label for picked entry
result: B

====

Below are Ki values for Urotensin-2 receptor (Homo sapiens, UniProt Q9UKP6) collected from several publications.
TARGET OR SYSTEM: Urotensin-2 receptor (Homo sapiens, UniProt Q9UKP6)
Sequence (Q9UKP6 whole entry): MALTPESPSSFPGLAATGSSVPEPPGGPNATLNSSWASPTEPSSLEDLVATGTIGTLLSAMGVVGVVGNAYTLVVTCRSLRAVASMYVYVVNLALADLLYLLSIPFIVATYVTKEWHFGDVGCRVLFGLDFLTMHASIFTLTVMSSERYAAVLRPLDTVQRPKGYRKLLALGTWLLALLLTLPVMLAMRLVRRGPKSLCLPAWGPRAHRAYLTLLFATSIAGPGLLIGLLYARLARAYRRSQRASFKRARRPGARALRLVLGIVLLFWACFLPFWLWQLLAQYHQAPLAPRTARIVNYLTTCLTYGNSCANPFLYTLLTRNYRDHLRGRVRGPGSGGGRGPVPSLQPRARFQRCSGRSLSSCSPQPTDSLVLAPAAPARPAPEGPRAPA
MEASURED PROPERTY: Ki (nM)

Solved entries (count: 2):
[
  {
    "MOLECULE": "CC(C)[C@H](NC(=O)[C@@H]1CSSC[C@H](NC(=O)[C@H](C)N)C(=O)N[C@@H](Cc2ccccc2)C(=O)N[C@@H](Cc2c[nH]c3ccccc23)C(=O)N[C@@H](CCCCN)C(=O)N[C@@H](Cc2ccc(O)cc2)C(=O)N1)C(=O)O",
    "MEASURED PROPERTY": "Ki",
    "EXPERIMENTAL RESULT": 6.31
  },
  {
    "MOLECULE": "CC(C)[C@H](NC(=O)[C@@H]1CSSC(C)(C)[C@H](NC(=O)[C@H](C)N)C(=O)N[C@@H](Cc2ccccc2)C(=O)N[C@@H](Cc2c[nH]c3ccccc23)C(=O)N[C@@H](CCCCN)C(=O)N[C@@H](Cc2ccc(O)cc2)C(=O)N1)C(=O)O",
    "MEASURED PROPERTY": "Ki",
    "EXPERIMENTAL RESULT": 0.794
  }
]

A: CC(C)[C@H](NC(=O)[C@@H]1CSSC[C@H](NC(=O)[C@H](C)N)C(=O)N[C@@H](Cc2ccccc2)C(=O)N(C)[C@@H](Cc2c[nH]c3ccccc23)C(=O)N[C@@H](CCCCN)C(=O)N[C@@H](Cc2ccc(O)cc2)C(=O)N1)C(=O)O
B: CC(C)C[C@H](NC(=O)c1cc2ccccc2s1)C(=O)NC1CCN(Cc2ccc(OCCCN(C)C)cc2)C1 (single isomer, unassigned; 2a)
query: Pick one: A or B . Which has the bigger Ki number? Bench note: the answer is the label of the chosen record.
result: B
(B: 126 nM, A: 2.19 nM)
